molecular target: Chymotrypsin (Bos taurus, UniProt P00766)
pIC50: −log10 of the molar value.
pIC50 values by entry

Examples with their reported pIC50 follow.
Structure string | Tested on | pIC50
COC(=O)c1ccc(NS(=O)(=O)c2sc3ccc(Cl)cc3c2C)c(OC)c1 | Chymotrypsin (Bos taurus, UniProt P00766) | < 6.00
COC(=O)c1ccc(NS(=O)(=O)c2sc3ccc(F)cc3c2C)c(S(C)(=O)=O)c1 | Chymotrypsin (Bos taurus, UniProt P00766) | < 5.00
Cc1c(S(=O)(=O)Nc2ccc(-c3cnco3)cc2S(C)(=O)=O)sc2ccc(F)cc12 | Chymotrypsin (Bos taurus, UniProt P00766) | < 5.00
CCOC(=O)c1ccc(NS(=O)(=O)c2sc3ccc(Cl)cc3c2C)cc1 | Chymotrypsin (Bos taurus, UniProt P00766) | < 5.00
COC(=O)c1ccc(NS(=O)(=O)c2sc3ccc(Cl)cc3c2C)c(S(C)(=O)=O)c1 | Chymotrypsin (Bos taurus, UniProt P00766) | < 5.00

As a next step, examine the molecule that follows.
Inquiry: pIC50 lookup needed for Cc1c(S(=O)(=O)Nc2ccc(-c3nc(C(=O)O)co3)cc2S(C)(=O)=O)sc2ccc(Cl)cc12 , thanks.
Reply text: < 5.00
